Listing: pKi of selected compounds
Target: Protease (Human immunodeficiency virus 1, UniProt Q9YQ12)
Sequence (Q9YQ12 whole entry): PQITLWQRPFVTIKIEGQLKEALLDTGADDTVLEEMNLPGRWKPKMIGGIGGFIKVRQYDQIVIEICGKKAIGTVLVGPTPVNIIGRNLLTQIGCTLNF
Experiment: Inhibition of recombinant HIV-1 protease expressed in Escherichia coli using Arg-Glu (EDANS)-Ser-Gln-Asn-Tyr-Pro-Ile-Val-Gln Lys(DABCYL)-Arg as substrate by spectrofluorometric analysis
Schema: pKi number; meaning minus log10 of the concentration expressed in molar units.

CC1=NCC(=O)Nc2cc(C(=O)O)ccc21 = 3.70
CC1=N[C@H](CC(C)C)C(=O)N(CC(=O)N2CCN(C(=O)OCc3ccccc3)CC2)c2cc(C(=O)O)ccc21 = 4.09
CC1=N[C@@H](Cc2ccccc2)C(=O)N(Cc2ccc(C3CCCCC3)cc2)c2cc(C(=O)OC(C)(C)C)ccc21 = 4.27
CC1=N[C@@H](CC(C)C)C(=O)N(Cc2ccc(C3CCCCC3)cc2)c2cc(C(=O)OC(C)(C)C)ccc21 = 4.12
CC1=N[C@H](CC(C)C)C(=O)N(CC(=O)OC(C)(C)C)c2cc(C(=O)OC(C)(C)C)ccc21 = 3.92

Q: Consider the compound CCCCCCCCCCCCCCCCNC(=O)CN1C(=O)[C@@H](CC(C)C)N=C(C)c2ccc(C(=O)OC(C)(C)C)cc21 and give its measured pKi.
Ans: 3.78
